Tested on: Phosphorylated Ribosomal Protein S6 (RPS6) in THP-1 cells
Assay: THP-1 RPS6 ELISA Assay
Assay type: cell-based, Human
Conditions: Homo sapiens; Table A2; THP-1 cells, 10 nM MCP-1; read-out: PI3Kγ_THP1_RPS6_ELISA IC50
pIC50: −log10 of the molar value. Counter-ions that a name gives are not always drawn.
Known pIC50 of a selection of molecules

molecule	assayed system	pIC50
Cc1ccc(C(O)(C(N)=O)C(F)(F)F)cc1-c1cnc(N)c(C#CC(C)C)n1 (centres unmarked)	Phosphorylated Ribosomal Protein S6 (RPS6) in THP-1 cells	> 6.30
Cc1ccc(C(O)(C(N)=O)C(F)(F)F)cc1-c1cnc(N)c(C#Cc2ccc(C#N)cc2)n1 (centres unmarked)	Phosphorylated Ribosomal Protein S6 (RPS6) in THP-1 cells	> 7.00
Cc1ccc(C(O)(C(N)=O)C(F)(F)F)cc1-c1cnc(N)c(C#Cc2cncn2C)n1 (centres unmarked)	Phosphorylated Ribosomal Protein S6 (RPS6) in THP-1 cells	> 6.30
Cc1ccc(C(O)(C(N)=O)C(F)(F)F)cc1-c1cnc(N)c(C#CC(C)(C)O)n1 (centres unmarked)	Phosphorylated Ribosomal Protein S6 (RPS6) in THP-1 cells	> 7.00
Cc1ccc(C(O)(C(N)=O)C(F)(F)F)cc1-c1cnc(N)c(C#Cc2cncnc2)n1 (centres unmarked)	Phosphorylated Ribosomal Protein S6 (RPS6) in THP-1 cells	> 7.00
Cc1ccc(C(O)(C(N)=O)C(F)(F)F)cc1-c1cnc(N)c(C#Cc2ccc(CC#N)cc2)n1 (centres unmarked)	Phosphorylated Ribosomal Protein S6 (RPS6) in THP-1 cells	> 7.00
Cc1ccc(C(O)(C(N)=O)C(F)(F)F)cc1-c1cnc(N)c(C#CC2(C)CCOCC2)n1 (centres unmarked)	Phosphorylated Ribosomal Protein S6 (RPS6) in THP-1 cells	> 7.00
COCC#Cc1nc(-c2cc(C(O)(C(N)=O)C(F)(F)F)ccc2C)cnc1N (centres unmarked) [Example 47, trifluoroacetate]	Phosphorylated Ribosomal Protein S6 (RPS6) in THP-1 cells	> 7.00
